# Assay Method Text: Intravenous pharmacokinetics in cynomolgus monkeys
# Type: in vivo, cynomolgus monkeys (Macaca fasicularis)
# Study Conditions: cynomolgus monkey, plasma, iv, dosed intravenously, read-out: Half-life (t ½; hr) (converted)
Outcome Measure: half-life (h)
Numbers only, in h.

Worked set:
> print(dat)
                                  substance  outcome.measure  readout.value
1  Ac-TTWEAWDRAIAEYAARIEALLRAAQEQQEKLEAALREL-NH2 [SEQ ID NO:10]        half-life             21
2  Ac-TTWEAWDRAIAEYAARIEALIRAAQEQQEKLEAALREL-NH2 (N-terminus and C-terminus assumed) [SEQ ID NO:7]        half-life             17
3  Ac-TTWEAWDRAIAEYAARIEALLRALQEQQEKNEAALREL-NH2 [SEQ ID NO:9]        half-life             12

Provide half-life values for the following items, in order.
1. Ac-TTWEAWDRAIAEYAARIEALLRAAQEQQEKNEAALREL-NH2 (N-terminus and C-terminus assumed) [SEQ ID NO:8]
2. Ac-TTWEAWDRAIAEYAARIEALIRALQEQQEKNEAALREL-NH2 (N-terminus and C-terminus assumed) [SEQ ID NO:6]

Reply text:
[7, 15]

----------
# Assay Method Text: Intravenous pharmacokinetics in cynomolgus monkeys
# Type: in vivo, cynomolgus monkeys (Macaca fasicularis)
# Study Conditions: cynomolgus monkey, plasma, iv, dosed intravenously
What clearance was measured for each of the following?

Worked set:
> print(dat)
                                  substance      readout.value
1  Ac-TTWEAWDRAIAEYAARIEALLRALQEQQEKNEAALREL-NH2 [SEQ ID NO:9]  < 0.333 mL/min/kg
2  Ac-TTWEAWDRAIAEYAARIEALIRALQEQQEKNEAALREL-NH2 (N-terminus and C-terminus assumed) [SEQ ID NO:6]  < 0.333 mL/min/kg
3  Ac-TTWEAWDRAIAEYAARIEALLRAAQEQQEKNEAALREL-NH2 (N-terminus and C-terminus assumed) [SEQ ID NO:8]  > 0.667 mL/min/kg

Provide clearance values for the following items, in order.
1. Ac-TTWEAWDRAIAEYAARIEALLRAAQEQQEKLEAALREL-NH2 [SEQ ID NO:10]
2. Ac-TTWEAWDRAIAEYAARIEALIRAAQEQQEKLEAALREL-NH2 (N-terminus and C-terminus assumed) [SEQ ID NO:7]

Reply text:
1: < 0.333 mL/min/kg; 2: < 0.333 mL/min/kg
